assay system: CDK4/cyclin D3 (Homo sapiens, UniProt P11802)
Construct: purchased Carna Biosciences, Inc. QS S Assist CDK4/Cyclin D3_FP Kit
Sequence (P11802 whole entry): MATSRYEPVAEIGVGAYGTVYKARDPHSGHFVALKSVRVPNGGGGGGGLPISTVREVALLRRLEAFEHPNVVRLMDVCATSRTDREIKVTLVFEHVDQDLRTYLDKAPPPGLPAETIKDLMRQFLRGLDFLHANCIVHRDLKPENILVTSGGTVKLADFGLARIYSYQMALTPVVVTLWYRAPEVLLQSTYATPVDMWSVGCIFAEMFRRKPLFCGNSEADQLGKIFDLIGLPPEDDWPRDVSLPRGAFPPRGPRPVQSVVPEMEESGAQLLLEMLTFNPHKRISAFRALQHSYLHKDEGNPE
Sequence (P30281 whole entry partner): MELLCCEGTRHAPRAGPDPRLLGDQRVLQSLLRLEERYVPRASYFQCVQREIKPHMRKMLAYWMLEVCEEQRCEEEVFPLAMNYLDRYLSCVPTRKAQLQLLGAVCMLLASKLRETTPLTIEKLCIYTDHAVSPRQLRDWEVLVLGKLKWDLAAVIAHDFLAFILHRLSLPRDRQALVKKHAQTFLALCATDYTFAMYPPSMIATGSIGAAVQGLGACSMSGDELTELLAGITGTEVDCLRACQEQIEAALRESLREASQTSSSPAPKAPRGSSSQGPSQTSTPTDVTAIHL
assay text: Human CDK4/cyclin D3 inhibitory activity (QS S Assist CDK4/Cyclin D3_FP Kit, IMAP fluorescence polarization)
Assay type: biochemical
experimental conditions: 50% inhibitory concentration against CDK4/cyclin D3, given as class symbol
readout type: IC50

Past entries and their recorded results:
INSERT INTO measurements (molecule, reported_value) VALUES
  ('CC(C)Nc1nc([C@@H](C)O)cc2cnc(Nc3ccc(N4CCN(C(=O)C5CCCO5)CC4)nn3)nc12 (stereo partly shown)', '< 10 nM'),
  ('CC(C)Nc1nc([C@@H](C)O)c(Cl)c2cnc(Nc3ccc(N4CCN(CCO)CCC4=O)cn3)nc12', '< 10 nM'),
  ('C[C@@H](O)c1cc2cnc(Nc3ccc4c(n3)CCN(C(=O)CO)C4)nc2c(N[C@H]2CC[C@@H](C)CC2)n1', '< 10 nM');

### Prompt Please tell me: IC50 of CO[C@H](C)c1cc2cnc(Nc3ccc(CN4CCN(C5COC5)CC4)cn3)nc2c(NC(C)C)n1 , system CDK4/cyclin D3 (Homo sapiens, UniProt P11802)?
### Response 10 to 100 nM
